Molecular target: T1, full-length TIGIT on hTIGIT-CHO-K1 cells (human, UniProt Q495A1 22-244)
T1 construct: CHO-K1 cells stably transfected with pTargeT-TIGIT; also called TIGIT on cell surface
T1 sequence: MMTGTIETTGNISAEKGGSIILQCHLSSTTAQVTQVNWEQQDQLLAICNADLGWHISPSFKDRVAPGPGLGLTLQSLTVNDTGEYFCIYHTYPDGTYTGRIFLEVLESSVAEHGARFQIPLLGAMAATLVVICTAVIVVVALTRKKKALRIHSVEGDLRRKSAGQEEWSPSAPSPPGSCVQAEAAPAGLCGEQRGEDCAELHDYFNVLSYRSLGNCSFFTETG
Assay: FACS on hTIGIT-CHO-K1 cells

{"columns": ["BINDER", "EC50 (nM)"],
 "data": [
  ["SHS006-T-Hu23-53 (antibody, IgG4, V domains shown, Humanized; also called SHS006-HuT23-53; HuT23-53) VH: EVQLVESGGGLVQPGGSLRLSCAASGFTFSDHWMSWVRQAPGKTMEWIGNIQYDGSYTNYAPSLKNRFTISRDNAKNSLYLQMNSLRAEDTATYYCTRGHFRITMASMGASASVYWGQGTMVTVSS VL: DIQMTQSPSSLSASVGDRVTITCRTSQDIGNSLRWFQQKPGKAPKLLIHGATNLANGVPSRFSGSGSGTDFTLTISSLQPEDFATYYCLQHNEYPLTFGQGTKLEIK", 0.199],
  ["humanized antibody 22G2 (antibody, IgG4, V domains shown, Expressed from pHR-22G2-hG4 (IgG4 heavy chain) and pHR-22G2-hk (light chain); from US 2016/0176963A1; also called positive control antibody) VH: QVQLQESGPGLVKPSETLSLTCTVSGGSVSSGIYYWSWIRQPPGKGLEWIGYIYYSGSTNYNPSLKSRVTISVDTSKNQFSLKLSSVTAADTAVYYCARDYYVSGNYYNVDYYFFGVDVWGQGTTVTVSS VL: EIVLTQSPATLSLSPGERATLSCRASQSVSSYLAWYQQKPGQAPRLLIYDASNRATGIPARFSGSGSGTDFTLTISSLEPEDFAVYYCQQRSNWPPLFTFGPGTKVDIK", 0.411],
  ["SHS006-T-Hu17-31 (antibody, IgG4, V domains shown, Humanized) VH: QVTLKESGPVLVKPTETLTLTCTFSGFSLRTYGLGVGWIRQPPGKALEWLANIWWDDDEYYNPSLKNRLTISKDTSKSQAVLTMTNMDPVDTATYYCARIARPHYYWDGRYILDVWGQGTTVTVSS VL: DIVMTQSPLSLPVTPGEPASISCRSSKSLLHSNGITYLSWYLQKPGQSPQLLIYQISNLASGVPDRFSGSGSGTDFTLKISRVEAEDVGVYYCMQFLEVPYTFGQGTKLEIK", 0.303],
  ["SHS006-17CHI (antibody, V domains shown, Chimeric antibody with human heavy and light chain constant regions) VH: QVTLKESGPGILQPSQTLSLTCTFSGFSLRTYGLGVGWIRQLSGKGLEWLANIWWDDDEYYNPSLKNRLTISKDTSNNQAFLKITNVDTADTATYYCARIARPHYYWDGRYILDVWGQGASVTVSS VL: DIMMTQSPLSVAVTPGESASISCRSSKSLLHSNGITYLSWYLQRPEKSPQLLIFQISNLASGVSDRFSGSGSGTDFTLIISKVETEDVGIYYCMQFLEVPYTFGAGTKLELK", 0.408],
  ["SHS006-23CHI (antibody, V domains shown, Chimeric antibody with human heavy and light chain constant regions) VH: EVQLVESEGGLVQPGASVKLSCVGSGFSFSDHWMSWVRQTPGKTMEWIGNIQYDGSYTNYAPSLKNRFTISRDNAKNTLYLQMTNLRSEDTATYYCTRGHFRITMASMGASASVYWGQGVMVTVSS VL: DIQMTQSPSSLPTSLGDRVTITCRTSQDIGNSLRWFQQKPGKSPRLMIHGATNLANGVPSRFSGSRAGSDYSLTINSLESEDMAMYYCLQHNEYPLTFGSGTKLEIK", 0.235]
]}
